Experiment: CO released in the presence of H2O2, CO meter
Type: physicochemical
Settings: 24 hours, 1.5 equivalents H2O2, 37° C.
Measured endpoint: CO release rate at 24 hours, CO meter, With 1.5x H2O2 (%)
Please give a number only; it is taken to be in %.

Use the examples below as a reference point.
# Compound, Obs value
measured = [
    ("O=C([O-])[BH2-][NH2+]C12CC3CC(CC(C3)C1)C2.[Na+] [Na-CORCB-6, Amantadine carboxyborane sodium salt]", 0.80),
    ("O=C(O)B[n+]1ccccc1", 1.00),
    ("C[N+](C)(C)[BH2-]C(=O)O", 2.70),
    ("CC12CC3CC(C)(C1)CC([NH2+][BH2-]C(=O)[O-])(C3)C2.[Na+] [Na-CORCB-4, Memantinecarboxyborane sodium salt]", 1.60),
]

Could you now look at the following compound, please?
Lookup: What measured CO release rate at 24 hours, CO meter, With 1.5x H2O2 goes with O=C(O)B[N+]12CN3CN(CN(C3)C1)C2 ?
Found: 12.10

----------
Experiment: CO released on auto-decomposition in water at 37° C., head space measured with CO meter
Assay type: physicochemical
Settings: 24 hours, 37° C.
Measured endpoint: CO release rate at 24 hours, CO meter, Autodecomposition (%)
Answer format: numeric, % implied, no suffix.

Some compounds with recorded CO release rate at 24 hours, CO meter, Autodecomposition:
# Compound, Scale unit, Obs value
records = [
    ("O=C(O)B[N+]12CN3CN(CN(C3)C1)C2", "%", 24),
    ("O=C([O-])[BH2-][n+]1ccccc1.[Na+]", "%", 0.36),
    ("N.O=C(O)[BH2-][N+]12CN3CN(CN(C3)C1)C2", "%", 28.70),
    ("O=C([O-])[BH2-][NH2+]C12CC3CC(CC(C3)C1)C2.[Na+] [Na-CORCB-6, Amantadine carboxyborane sodium salt]", "%", 0.16),
]

Lookup: Could you tell me which CO release rate at 24 hours, CO meter, Autodecomposition is on file for O=C(O)B[n+]1ccccc1 ?
Found: 3

Lookup: State the recorded CO release rate at 24 hours, CO meter, Autodecomposition for this entry: CC12CC3CC(C)(C1)CC([NH2+][BH2-]C(=O)[O-])(C3)C2.[Na+] [Na-CORCB-4, Memantinecarboxyborane sodium salt]
Found: 0.06

Lookup: State the recorded CO release rate at 24 hours, CO meter, Autodecomposition for this entry: CC(=O)Nc1ccc(OC(=O)B[N+]23CN4CN(CN(C4)C2)C3)cc1
Found: 12.30

Lookup: Reported CO release rate at 24 hours, CO meter, Autodecomposition, compound CN1CCC[C@H]1c1ccc[n+](BC(=O)O)c1 : ____
Found: 0.86

Lookup: Look up CO release rate at 24 hours, CO meter, Autodecomposition for this compound: O=C([O-])[BH2-][N+]12CN3CN(CN(C3)C1)C2.[Na+]
Found: 33.10

----------
Experiment: physchem
Settings: 24 hours, 37° C.
Label 1 (yes) when Decomposition rate at 24 hours, 1H NMR, Autodecomposition < 10%; otherwise 0 (no).

# Smiles data, Label
rows = [
    ("O=C([O-])[BH2-][N+]12CN3CN(CN(C3)C1)C2.[Na+]", "0 (no)"),
    ("O=C([O-])[BH2-][n+]1ccccc1.[Na+]", "1 (yes)"),
    ("N.O=C(O)[BH2-][n+]1ccccc1", "1 (yes)"),
    ("N.O=C(O)[BH2-][N+]12CN3CN(CN(C3)C1)C2", "0 (no)"),
]

Lookup: hey, is Decomposition rate at 24 hours, 1H NMR, Autodecomposition for O=C(O)B[n+]1ccccc1 lower than 10% or not?
Found: 1 (yes)

Lookup: Take the molecule CC(=O)Nc1ccc(OC(=O)B[N+]23CN4CN(CN(C4)C2)C3)cc1 and say whether its Decomposition rate at 24 hours, 1H NMR, Autodecomposition is less than 10%.
Found: 0 (no)

Lookup: Find out if reported Decomposition rate at 24 hours, 1H NMR, Autodecomposition for O=C(O)B[N+]12CN3CN(CN(C3)C1)C2 is less than 10%
Found: 0 (no)

Lookup: Field: below-cutoff. Rule: recorded Decomposition rate at 24 hours, 1H NMR, Autodecomposition strictly less than 10%. Subject: CC12CC3CC(C)(C1)CC([NH2+][BH2-]C(=O)O)(C3)C2.N
Found: 0 (no)

Lookup: Lab note: Decomposition rate at 24 hours, 1H NMR, Autodecomposition threshold 10%. Does this molecule come in strictly under it? CN1CCC[C@H]1c1ccc[n+](BC(=O)O)c1
Found: 1 (yes)

----------
Experiment: Anti-tumor effect of CORCB-1 in the presence of ROS, normal cells
Format: cell-based, human
Settings: human, Hs 895.Sk normal fibroblast cells; 1 mM CORCB-1 + 0.2 mM H2O2, 2 days; read-out: % viable normal cells at 2 days
Measured endpoint: viability at 2 days, 1 mM

Lookup: Could you tell me which viability at 2 days, 1 mM is on file for O=C(O)B[N+]12CN3CN(CN(C3)C1)C2 ?
Found: ~100%

----------
Experiment: Decomposition (amine release) in the presence of H2O2 monitored by 1H NMR
Format: physicochemical
Settings: 24 hours, 1.5 equivalents H2O2, 37° C.
# cutoff 40% applies to Decomposition rate at 24 hours, 1H NMR, With 1.5x H2O2; >= gives 1, < gives -1

As a guide, the following entries are already answered.
# Compound, Label
records = [
    ("O=C([O-])[BH2-][NH2+]C12CC3CC(CC(C3)C1)C2.[Na+] [Na-CORCB-6, Amantadine carboxyborane sodium salt]", -1),
    ("O=C(O)B[n+]1ccccc1", -1),
    ("O=C(O)B[N+]12CN3CN(CN(C3)C1)C2 [CORCB-1, Hexamethylenetetramine carboxyborane]", 1),
]

Lookup: For this compound, is measured Decomposition rate at 24 hours, 1H NMR, With 1.5x H2O2 40% or higher? C[N+](C)(C)[BH2-]C(=O)O [CORCB-3, trimethylamine carboxyborane]
Found: 1

Lookup: In plain terms: is recorded Decomposition rate at 24 hours, 1H NMR, With 1.5x H2O2 at least 40% for CC12CC3CC(C)(C1)CC([NH2+][BH2-]C(=O)[O-])(C3)C2.[Na+] [Na-CORCB-4, Memantinecarboxyborane sodium salt] ?
Found: 1

Lookup: # bool: Decomposition rate at 24 hours, 1H NMR, With 1.5x H2O2 of CN1CCC[C@H]1c1ccc[n+](BC(=O)O)c1 >= 40%
Found: -1

----------
Experiment: physchem
Measured endpoint: half-life at 12 mg/mL (h)
A number alone suffices; assume h.

Lookup: Record request: half-life at 12 mg/mL value, item O=C(O)B[N+]12CN3CN(CN(C3)C1)C2
Found: 84

----------
Experiment: CO released on auto-decomposition in water at 37° C., head space measured with CO meter
Format: physicochemical
Settings: 24 hours, 37° C.
Items are presented alongside their recorded % CO liberated at 24 hours by CO meter.
Expressed in %, but write only the number.

# Smiles data, Measured endpoint, Obs value
records = [
    ("CC(=O)Nc1ccc(OC(=O)B[N+]23CN4CN(CN(C4)C2)C3)cc1", "% CO liberated at 24 hours by CO meter", 12.3),
    ("O=C([O-])[BH2-][N+]12CN3CN(CN(C3)C1)C2.[Na+]", "% CO liberated at 24 hours by CO meter", 33),
    ("CN1CCC[C@H]1c1ccc[n+](BC(=O)O)c1", "% CO liberated at 24 hours by CO meter", 0.86),
]

Moving on to another molecule below.
Lookup: Quick one: % CO liberated at 24 hours by CO meter of O=C(O)B[N+]12CN3CN(CN(C3)C1)C2 ?
Found: 23

----------
Experiment: CO released on auto-decomposition in water at 37° C., head space measured with CO meter
Format: physicochemical
Settings: 24 hours, 37° C.
Measured endpoint: CO release rate at 24 hours, CO meter, Autodecomposition

# Compound, Obs value
data = [
    ("N.O=C(O)[BH2-][n+]1ccccc1 [NH4-CORCB-2]", "not measurable"),
    ("C[C@]12CC3CC([NH2+][BH2-]C(=O)O)(C1)C[C@@](C)(C3)C2 [CORCB-4, memantine carboxyborane]", "not soluble"),
    ("CC12CC3CC(C)(C1)CC([NH2+][BH2-]C(=O)O)(C3)C2.N [NH4-CORCB-4]", "not soluble"),
    ("C[N+](C)(C)[BH2-]C(=O)O [Na-CORCB-3]", "not measurable"),
]

----------
Experiment: physchem
Settings: 24 hours, 37° C.
Measured endpoint: Decomposition rate at 24 hours, 1H NMR, Autodecomposition

# Compound, Obs value
records = [
    ("C[N+](C)(C)[BH2-]C(=O)O", "not measurable"),
    ("CC12CC3CC(C)(C1)CC([NH2+][BH2-]C(=O)[O-])(C3)C2.[Na+] [Na-CORCB-4, Memantinecarboxyborane sodium salt]", "not measurable"),
    ("O=C([O-])[BH2-][NH2+]C12CC3CC(CC(C3)C1)C2.[Na+] [Na-CORCB-6, Amantadine carboxyborane sodium salt]", "not measurable"),
]
